# system tested: T1, mouse IL-13 (mouse, UniProt P20109 22-131, limits assumed)
# T1 construct: also called murine IL-13
# T1 sequence (looked up): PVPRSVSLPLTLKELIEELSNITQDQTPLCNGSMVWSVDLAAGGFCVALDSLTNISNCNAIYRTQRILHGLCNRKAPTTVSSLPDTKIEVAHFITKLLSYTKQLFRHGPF
# test protocol: epitope mapping with mouse IL-13 chimeric molecules (ELISA)

[
  {
    "binder": "mAb 731 (antibody, V domains shown, also called sc731) VH: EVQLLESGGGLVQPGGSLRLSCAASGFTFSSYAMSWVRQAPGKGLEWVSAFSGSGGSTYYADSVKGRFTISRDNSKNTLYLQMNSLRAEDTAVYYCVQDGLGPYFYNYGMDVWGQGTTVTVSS VL: SYELTQPPSVSVSPGQTASITCSGDKLGDKYACWFQQKPGQSPVLVIYHDSKRPSGIPERFSGSNSGDTATLTISGTQAMDEADYYCQAWDSSTYVFGTGTKVTVLG",
    "binding result": "no binding"
  },
  {
    "binder": "mAb 713 (antibody, V domains shown) VH: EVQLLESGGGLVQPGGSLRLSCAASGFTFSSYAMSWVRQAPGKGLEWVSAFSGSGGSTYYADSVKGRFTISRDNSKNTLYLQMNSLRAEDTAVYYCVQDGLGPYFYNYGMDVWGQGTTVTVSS VL: SYELTQPPSVSVSPGQTASITCSGDKLGDKYTCWFQQKPGQSPVLVIYHDSKRPSGIPERFSGSNSGDTATLTISGTQAMDEADYYCQAWDSSTYVFGTGTKVTVLG",
    "binding result": "no binding"
  },
  {
    "binder": "mAb 643 (antibody, V domains shown) VH: EVQLVESGGGLVKPGGSLRLSCAASGFTFSNAWMSWVRQAPGKGLEWVGRIRSEIDGGTTNYAAPVKGRFTISRDDSKNTLYLQMNSLRTEDTAVYYCATDQVGAYYGDYYGMDVWGQGTTVTVSS VL: SYELTQPPSVSVSPGQTARITCSGDALPEKYAYWYQQKSGQAPVLVIYEDSKRPSGIPERFSGSSSGTMATLTISGAQVEDEADYYCHSTDSSGNHGVFGGGTKLTVLG",
    "binding result": "no binding"
  },
  {
    "binder": "mAb 602 (antibody, V domains shown) VH: EVQLVESGGGLVKPGGSLRLSCAASGFTFSNAWMSWVRQAPGKGLEWVGRIRSKIDGGTINYAAPVKGRFTISRDDSKNTLYLQMNSLKTEDTAVYYCATDQVGAYYGDYYGMDVWGQGTTVTVSS VL: SYELTQPPSVSVSPGQTARITCSGDALPEKYAYWYQQKSGQAPVLVIYEDTKRPSGIPERFSGSSSGTMATLTISGAQVEDEADYYCYSTDSSGNHGVFGGGTKLTVLG",
    "binding result": "no binding"
  }
]
